Target: T1, EF-Biotin (B. anthracis, UniProt P40136 34-800)
T1 sequence: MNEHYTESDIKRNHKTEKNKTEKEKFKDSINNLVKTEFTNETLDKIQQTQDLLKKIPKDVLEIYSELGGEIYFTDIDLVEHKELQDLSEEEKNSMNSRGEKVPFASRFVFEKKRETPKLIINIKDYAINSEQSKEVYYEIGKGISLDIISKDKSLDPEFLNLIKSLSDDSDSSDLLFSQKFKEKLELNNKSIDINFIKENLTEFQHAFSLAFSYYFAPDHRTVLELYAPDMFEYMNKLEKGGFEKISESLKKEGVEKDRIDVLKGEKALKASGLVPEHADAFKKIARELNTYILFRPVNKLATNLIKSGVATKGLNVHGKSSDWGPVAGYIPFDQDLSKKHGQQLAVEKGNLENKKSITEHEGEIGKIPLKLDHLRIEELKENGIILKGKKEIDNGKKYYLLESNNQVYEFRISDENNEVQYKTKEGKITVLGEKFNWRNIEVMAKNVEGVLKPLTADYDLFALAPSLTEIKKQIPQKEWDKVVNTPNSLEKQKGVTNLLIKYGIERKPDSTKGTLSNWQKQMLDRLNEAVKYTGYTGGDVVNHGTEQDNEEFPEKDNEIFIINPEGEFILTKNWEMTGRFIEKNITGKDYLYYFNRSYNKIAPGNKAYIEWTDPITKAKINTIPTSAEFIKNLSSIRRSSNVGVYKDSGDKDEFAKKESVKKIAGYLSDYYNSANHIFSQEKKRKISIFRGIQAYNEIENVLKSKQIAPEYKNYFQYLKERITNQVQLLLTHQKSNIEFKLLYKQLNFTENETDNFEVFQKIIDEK
Assay: non-adsorbed VHH ELISA, IPTG-induced VHH-myc, EF-Biotin (Ag+) vs control (Ag-)

[
  {
    "binder": "clone 57 (VHH) VHH: EVQLQASGGGFVQPGGSLRLSCAASGGTSFQTAMGWFRQAPGKEREFVSAISSRQGSHPYYADSVKGRFTISRDNSKNTVYLQMNSLRAEDTATYYCATRMTETRKMYWGQGTQVTVSS",
    "Phage IPTG Ag+/Ag- [ratio]": 6.3
  },
  {
    "binder": "clone 44 (VHH) VHH: EVQLQASGGGFVQPGGSLRLSCAASGFTSGSTAMGWFRQAPGKEREFVSAISRFENQGNYYADSVKGRFTISRDNSKNTVYLQMNSLRAEDTATYYCATRAVASSTMYWGQGTQVTVSS",
    "Phage IPTG Ag+/Ag- [ratio]": 6.1
  },
  {
    "binder": "clone 60 (VHH) VHH: EVQLQASGGGFVQPGGSLRLSCAASGSTFKHSAMGWFRQAPGKEREFVSAISSGPGMESYYADSVKGRFTISRDNSKNTVYLQMNSLRAEDTATYYCAGRAFPGQKMYWGQGTQVTVSS",
    "Phage IPTG Ag+/Ag- [ratio]": 4.9
  },
  {
    "binder": "clone 41 (VHH) VHH: EVQLQASGGGFVQPGGSLRLSCAASGDTWRTTAMGWFRQAPGKEREFVSAISGGDNRGTYYADSVKGRFTISRDNSKNTVYLQMNSLRAEDTATYYCAGRLNQNGPMYWGQGTQVTVSS",
    "Phage IPTG Ag+/Ag- [ratio]": 5.7
  },
  {
    "binder": "clone 66 (VHH) VHH: EVQLQASGGGFVQPGGSLRLSCAASGTGSNASAMGWFRQAPGKEREFVSAISRHEGQPPYYADSVKGRFTISRDNSKNTVYLQMNSLRAEDTATYYCAMRYQSHIDIPGDSSPKLMYWGQGTQVTVSS",
    "Phage IPTG Ag+/Ag- [ratio]": 5.8
  },
  {
    "binder": "clone 28 (VHH) VHH: EVQLQASGGGFVQPGGSLRLSCAASGASYRGTSMGWFRQAPGKEREFVSAISFRPDQQPYYADSVKGRFTISRDNSKNTVYLQMNSLRAEDTATYYCAERRQHSRGLYWGQGTQVTVSS",
    "Phage IPTG Ag+/Ag- [ratio]": 6.6
  },
  {
    "binder": "clone 40 (VHH) VHH: EVQLQASGGGFVQPGGSLRLSCAASGRTFDGSAMGWFRQAPGKEREFVSAISASPSGESYYADSVKGRFTISRDNSKNTVYLQMNSLRAEDTATYYCAGRGRSQKSMYWGQGTQVTVSS",
    "Phage IPTG Ag+/Ag- [ratio]": 6.2
  },
  {
    "binder": "clone 26 (VHH) VHH: EVQLQASGGGFVQPGGSLRLSCAASGAYSARTTMGWFRQAPGKEREFVSAISAHEGQAPYYADSVKGRFTISRDNSKNTVYLQMNSLRAEDTATYYCATRAHEPKGMYWGQGTQVTVSS",
    "Phage IPTG Ag+/Ag- [ratio]": 10.2
  },
  {
    "binder": "clone 49 (VHH) VHH: EVQLQASGGGFVQPGGSLRLSCAASGGFFTSSTMGWFRQAPGKEREFVSAISRQHDNAPYYADSVKGRFTISRDNSKNMVYLQMNSLRAEDTATYYCAARNATHKGIYWGQGTQVTVSS",
    "Phage IPTG Ag+/Ag- [ratio]": 3.6
  },
  {
    "binder": "clone 42 (VHH) VHH: EVQLQASGGGFVQPGGSLRLSCAASGDGSFASAMGWFRQAPGKEREFVSAISAHAGGSPYYADSVKGRFTISRDNSKNTVYLQMNSLRAEDTATYYCAQRIGATRAMYWGQGTQVTVSS",
    "Phage IPTG Ag+/Ag- [ratio]": 5
  }
]
